Assay: T1-relaxivity (r1) as a function of pH
Assay type: physicochemical
Conditions: r1 vs pH; read-out: pKa of the Fe^3+ water co-ligand
From the text: FIG. 5A compares the pH-dependence on T1-relaxivity (r1; the Fe induced increase in T1 relaxation rate (R1) normalized to Fe concentration in mM) for the structurally related Fe^3+ complexes Fe-CDTA-Ph-3,5-CF3 and Fe-PyCy2AI. […]
measure name: pKa

[[record]]
compound = "O=C(O)CN(CC(=O)O)C1CCCCC1N(CC(=O)O)CC(=O)Nc1cc(C(F)(F)F)cc(C(F)(F)F)c1.[Fe+3] (stereo not shown) [Fe-CDTA-Ph-3,5-CF3]"
observed_value = "> 7.4"

